- Tested on: exploratory behavior
- assay-details: Inhibitory effect on exploratory behavior
- Assay type: in vivo, Male Std-Wistar rats
- experimental-parameters: 500 mg/kg p.o.; one hour after administration; rat
observed-property: Inhibitory rate, exploratory behavior (%)
Use % as the unit, but write only the number.

molecule	study-system	unit-symbol	Inhibitory rate, exploratory behavior
Cc1cc2c(cc1C)CCC(CCN1CCCC1)=C2	exploratory behavior	%	0
Cc1cc2c(cc1C)CCC(CCN1CCCCC1)=C2	exploratory behavior	%	20.0
CCc1ccc(C(=O)C(C)CN2CCCC2)cc1.Cl (stereo not shown) [Compound A, reference compound]	exploratory behavior	%	28.3

Attention now shifts to the item below.
Qu. // fetch exploratory behavior Inhibitory rate, exploratory behavior for Fc1cccc2c1CCC(CCN1CCCC1)=C2
Ans. 16.2

* * *

- Tested on: rhythmic bladder contractions (micturition reflex)
- assay-details: Inhibitory effect on rhythmic bladder contractions (micturition reflex)
- Type: in vivo, Female Std-Wistar rats
- experimental-parameters: intraduodenal, 2 h; 30 mg/kg, i.d.; mean over two hours; rat; read-out: Inhibitory rate on contractile frequency
Class Fulfilled: inhibition in vivo at 30 mg/kg at least 60%. Class Not fulfilled: inhibition in vivo at 30 mg/kg below 60%.

Qu. Does the compound Fc1cccc2c1CCC(CCN1CCCCC1)=C2 have recorded inhibition in vivo at 30 mg/kg that is 60% or more?
Ans. Fulfilled

Qu. Would you kindly repeat that for Fc1ccc2c(c1)C=C(CCN1CCCCC1)CC2 ?
Ans. Fulfilled

Qu. Would you kindly repeat that for Cc1ccc2c(c1)C=C(CCN1CCCC1)CC2 ?
Ans. Fulfilled

Qu. Would you kindly repeat that for Cc1cccc2c1CCC(CCN1CCCCC1)=C2 ?
Ans. Not fulfilled

Qu. Would you kindly repeat that for COc1ccc2c(c1)C=C(CCN1CCCCC1)CC2 ?
Ans. Fulfilled

Taken from patent US5847159A.
